All values here come from ChEMBL document CHEMBL2034824.

- ASSAY EXPLANATION: Clearance in cynomolgus monkey at 2 mg/kg
- Type: ADME, organism-based, Macaca fascicularis
- Design: dose 2 mg/kg
- CONDITIONS USED: in vivo
MEASURE: clearance (mL/min/kg)

[
  {
    "MOL SMILES": "CC(C)C[C@@H]1C(=O)N[C@H](C2Cc3ccccc3C2)C(=O)N1[C@@H](C(=O)N(C)C)c1ccc(F)cc1F",
    "clearance / mL/min/kg": 24
  },
  {
    "MOL SMILES": "CC[C@H](C)[C@@H]1C(=O)N[C@H](C2Cc3ccccc3C2)C(=O)N1[C@@H](C(=O)N1CCOCC1)c1ccc(C)nc1C",
    "clearance / mL/min/kg": 26
  },
  {
    "MOL SMILES": "CC[C@H](C)[C@@H]1C(=O)N[C@H](C2Cc3ccccc3C2)C(=O)N1[C@@H](C(=O)N1CCOCC1)c1coc(C)n1",
    "clearance / mL/min/kg": 26
  },
  {
    "MOL SMILES": "CC[C@H](C)[C@@H]1C(=O)N[C@H](C2Cc3ccccc3C2)C(=O)N1[C@@H](C(=O)N(C)C)c1ccc(C)nc1C",
    "clearance / mL/min/kg": 20
  },
  {
    "MOL SMILES": "CCC(CC)[C@@H]1C(=O)N[C@H](C2Cc3ccccc3C2)C(=O)N1[C@@H](C(=O)NC)c1ccc(C)nc1",
    "clearance / mL/min/kg": 24
  }
]

----------
- Test system: Rattus norvegicus
- ASSAY EXPLANATION: Reduction of oxytocin-induced uterine contraction in iv dosed rat uterine contractility model
- Type: functional, organism-based
MEASURE: IC50 (µM)
Give just the numeric value; µM need not be written.

Assign IC50 to the following record: CC[C@H](C)[C@@H]1C(=O)N[C@H](C2Cc3ccccc3C2)C(=O)N1[C@@H](C(=O)N1CCOCC1)c1ccc(C)nc1C
0.192

----------
- System: Liver
- ASSAY EXPLANATION: Intrinsic clearance in dog liver microsomes
- Assay type: ADME, Canis lupus familiaris, Microsome
MEASURE: CLH (mL/min/g)

Some solved entries appear below for comparison.
[
  {
    "MOL SMILES": "CC(C)C[C@@H]1C(=O)N[C@H](C2Cc3ccccc3C2)C(=O)N1[C@@H](C(=O)N(C)C)c1ccc(F)cc1F",
    "VALUE REPORTED": 7
  },
  {
    "MOL SMILES": "CC[C@H](C)[C@@H]1C(=O)N[C@H](C2Cc3ccccc3C2)C(=O)N1[C@@H](C(=O)N1CCOCC1)c1ccc(C)nc1",
    "VALUE REPORTED": 2
  },
  {
    "MOL SMILES": "CC[C@H](C)[C@@H]1C(=O)N[C@H](C2Cc3ccccc3C2)C(=O)N1[C@@H](C(=O)NC)c1ccc(C)nc1C",
    "VALUE REPORTED": 5
  }
]

P. Cc1ccc([C@H](C(=O)N2CCOCC2)N2C(=O)[C@@H](C3Cc4ccccc4C3)NC(=O)[C@H]2CC(C)(C)C)cn1
Q. CC[C@@H](C)[C@@H]1C(=O)N[C@H](C2Cc3ccccc3C2)C(=O)N1[C@@H](C(=O)N(C)C)c1ccc(C)nc1
R. CCC(CC)[C@@H]1C(=O)N[C@H](C2Cc3ccccc3C2)C(=O)N1[C@@H](C(=O)NC)c1ccc(C)nc1
S. CC[C@H](C)[C@@H]1C(=O)N[C@H](C2Cc3ccccc3C2)C(=O)N1[C@@H](C(=O)NC)c1cc(C)cnc1C
Rank order required: CLH, descending. Labels, requested order.
P, S, R, Q

----------
- ASSAY EXPLANATION: Oral bioavailability in rat at 5 mg/kg
- Format: ADME, organism-based
- CONDITIONS USED: in vivo
MEASURE: bioavailability (%)

[
  {
    "MOL SMILES": "CC[C@@H](C)[C@@H]1C(=O)N[C@H](C2Cc3ccccc3C2)C(=O)N1[C@@H](C(=O)N1CCOCC1)c1ccc(C)nc1",
    "bioavailability / %": 44
  }
]

A. Cc1ccc([C@H](C(=O)N2CCCC2)N2C(=O)[C@@H](C3Cc4ccccc4C3)NC(=O)[C@H]2CC(C)C)cn1
B. COc1ccc([C@H](C(=O)N(C)C)N2C(=O)[C@@H](C3Cc4ccccc4C3)NC(=O)[C@H]2CC(C)C)cn1
Returns: the argument ( A or B ) having the larger bioavailability. Answer with the label corresponding to your selection.
B

----------
- ASSAY EXPLANATION: AUC in rat at 5 mg/kg, po
- Assay type: ADME, organism-based
- Parameters: dose 5 mg/kg, route oral
- CONDITIONS USED: plasma
MEASURE: AUC (ng·h/mL)

Some solved entries appear below for comparison.
[
  {
    "MOL SMILES": "CCC(CC)[C@@H]1C(=O)N[C@H](C2Cc3ccccc3C2)C(=O)N1[C@@H](C(=O)NC)c1ccc(C)nc1",
    "VALUE REPORTED": 1470
  },
  {
    "MOL SMILES": "Cc1ccc([C@H](C(=O)N2CCCC2)N2C(=O)[C@@H](C3Cc4ccccc4C3)NC(=O)[C@H]2CC(C)C)cn1",
    "VALUE REPORTED": 920
  }
]

a. CC[C@@H](C)[C@@H]1C(=O)N[C@H](C2Cc3ccccc3C2)C(=O)N1[C@@H](C(=O)N(C)C)c1ccc(C)nc1
b. CC[C@H](C)[C@@H]1C(=O)N[C@H](C2Cc3ccccc3C2)C(=O)N1[C@@H](C(=O)N(C)C)c1ccc(C)nc1
I would appreciate it if you could say which entry, a or b , has the lower AUC value. Answer with the label corresponding to your selection.
b

----------
- Test system: Liver
- ASSAY EXPLANATION: Intrinsic clearance in dog liver microsomes
- Type: ADME, Canis lupus familiaris, Microsome
MEASURE: CLH (mL/min/g)

Some solved entries appear below for comparison.
[
  {
    "MOL SMILES": "CCC(CC)[C@@H]1C(=O)N[C@H](C2Cc3ccccc3C2)C(=O)N1[C@@H](C(=O)N1CCOCC1)c1ccc(C)nc1",
    "VALUE REPORTED": 5
  },
  {
    "MOL SMILES": "CC[C@H](C)[C@@H]1C(=O)N[C@H](C2Cc3ccccc3C2)C(=O)N1[C@@H](C(=O)N(C)C)c1cnc(C)cc1C",
    "VALUE REPORTED": 1
  }
]

I. CCC(CC)[C@@H]1C(=O)N[C@H](C2Cc3ccccc3C2)C(=O)N1[C@@H](C(=O)N(C)C)c1ccc(C)nc1
II. CC[C@H](C)[C@@H]1C(=O)N[C@H](C2Cc3ccccc3C2)C(=O)N1[C@@H](C(=O)NC)c1cnc(C)cc1C
III. CC[C@H](C)[C@@H]1C(=O)N[C@H](C2Cc3ccccc3C2)C(=O)N1[C@@H](C(=O)N(C)C)c1cc(C)cnc1C
Rank order required: CLH, descending. Labels, requested order.
II, III, I

I. CC[C@H](C)[C@@H]1C(=O)N[C@H](C2Cc3ccccc3C2)C(=O)N1[C@@H](C(=O)N(C)C)c1ccc(C)nc1C
II. Cc1ccc([C@H](C(=O)N(C)C)N2C(=O)[C@@H](C3Cc4ccccc4C3)NC(=O)[C@H]2CC(C)C)cn1
I would appreciate it if you could say which entry, I or II , has the lower CLH value. Answer with the label corresponding to your selection.
I
(I: 1 mL/min/g, II: 3 mL/min/g)

a. CCC(CC)[C@@H]1C(=O)N[C@H](C2Cc3ccccc3C2)C(=O)N1[C@@H](C(=O)N(C)C)c1ccc(C)nc1C
b. CC[C@@H](C)[C@@H]1C(=O)N[C@H](C2Cc3ccccc3C2)C(=O)N1[C@@H](C(=O)N1CCOCC1)c1ccc(C)nc1
I would appreciate it if you could say which entry, a or b , has the lower CLH value. Answer with the label corresponding to your selection.
a

1. CC[C@H](C)[C@@H]1C(=O)N[C@H](C2Cc3ccccc3C2)C(=O)N1[C@@H](C(=O)N(C)C)c1ccc(C)nc1
2. CC[C@H](C)[C@@H]1C(=O)N[C@H](C2Cc3ccccc3C2)C(=O)N1[C@@H](C(=O)N1CCOCC1)c1cnc(C)cc1C
I would appreciate it if you could say which entry, 1 or 2 , has the lower CLH value. Answer with the label corresponding to your selection.
1
(1: 1 mL/min/g, 2: 4 mL/min/g)

----------
- Tested on: Liver microsomes
- ASSAY EXPLANATION: Intrinsic clearance in human liver microsomes
- Assay type: ADME, Microsome
MEASURE: CLH (mL/min/g)

Some solved entries appear below for comparison.
[
  {
    "MOL SMILES": "CCC(CC)[C@@H]1C(=O)N[C@H](C2Cc3ccccc3C2)C(=O)N1[C@@H](C(=O)N1CCOCC1)c1ccc(C)nc1",
    "MEASURE": "CLH",
    "VALUE REPORTED": 12
  },
  {
    "MOL SMILES": "CC[C@H](C)[C@@H]1C(=O)N[C@H](C2Cc3ccccc3C2)C(=O)N1[C@@H](C(=O)N1CCOCC1)c1ccc(C)nc1",
    "MEASURE": "CLH",
    "VALUE REPORTED": 3
  },
  {
    "MOL SMILES": "CC[C@H](C)[C@@H]1C(=O)N[C@H](C2Cc3ccccc3C2)C(=O)N1[C@@H](C(=O)N1CCOCC1)c1ccc(C)nc1C",
    "MEASURE": "CLH",
    "VALUE REPORTED": 5
  },
  {
    "MOL SMILES": "CC[C@@H](C)[C@@H]1C(=O)N[C@H](C2Cc3ccccc3C2)C(=O)N1[C@@H](C(=O)N(C)C)c1ccc(C)nc1",
    "MEASURE": "CLH",
    "VALUE REPORTED": 3
  },
  {
    "MOL SMILES": "CCC(CC)[C@@H]1C(=O)N[C@H](C2Cc3ccccc3C2)C(=O)N1[C@@H](C(=O)N1CCOCC1)c1ccc(C)nc1C",
    "MEASURE": "CLH",
    "VALUE REPORTED": 11
  }
]

a. CCC(CC)[C@@H]1C(=O)N[C@H](C2Cc3ccccc3C2)C(=O)N1[C@@H](C(=O)N(C)C)c1ccc(C)nc1
b. CC[C@H](C)[C@@H]1C(=O)N[C@H](C2Cc3ccccc3C2)C(=O)N1[C@@H](C(=O)N(C)C)c1ccc(C)nc1C
Returns: the argument ( a or b ) having the larger CLH. Answer with the label corresponding to your selection.
a
(a: 11 mL/min/g, b: 7 mL/min/g)
